pIC50 values, listed per item
- assayed_system: human DGKζ (Homo sapiens (Human))
- Sequence (Q13574 other isoform, or with tags, fused parts or gaps): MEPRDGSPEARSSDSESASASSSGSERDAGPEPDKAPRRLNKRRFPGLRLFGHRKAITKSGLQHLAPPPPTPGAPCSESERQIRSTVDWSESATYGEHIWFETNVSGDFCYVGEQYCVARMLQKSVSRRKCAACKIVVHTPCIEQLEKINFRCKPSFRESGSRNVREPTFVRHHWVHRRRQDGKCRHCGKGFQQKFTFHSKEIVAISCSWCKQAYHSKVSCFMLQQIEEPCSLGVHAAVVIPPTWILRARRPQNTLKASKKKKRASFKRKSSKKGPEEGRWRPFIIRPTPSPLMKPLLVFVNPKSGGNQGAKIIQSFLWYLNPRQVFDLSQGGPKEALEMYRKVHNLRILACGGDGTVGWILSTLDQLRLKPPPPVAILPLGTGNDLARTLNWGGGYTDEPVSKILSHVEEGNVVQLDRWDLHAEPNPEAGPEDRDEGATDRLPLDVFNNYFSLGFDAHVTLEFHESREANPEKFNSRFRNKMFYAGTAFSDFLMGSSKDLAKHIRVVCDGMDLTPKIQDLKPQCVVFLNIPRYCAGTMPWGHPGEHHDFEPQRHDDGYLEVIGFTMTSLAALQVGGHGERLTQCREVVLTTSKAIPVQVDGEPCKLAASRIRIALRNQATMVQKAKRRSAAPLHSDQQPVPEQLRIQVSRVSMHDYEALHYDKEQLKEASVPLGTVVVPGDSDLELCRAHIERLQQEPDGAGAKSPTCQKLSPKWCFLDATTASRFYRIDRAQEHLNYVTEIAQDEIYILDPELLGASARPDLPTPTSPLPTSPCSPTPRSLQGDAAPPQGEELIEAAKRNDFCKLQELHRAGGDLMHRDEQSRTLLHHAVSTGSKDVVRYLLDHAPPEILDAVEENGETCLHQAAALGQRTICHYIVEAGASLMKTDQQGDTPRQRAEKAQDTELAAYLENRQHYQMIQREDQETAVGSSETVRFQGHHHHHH
- assay_remarks: DGKζ LIPGLO assay (extruded liposome substrate, ADP-Glo luminescence)
- Format: biochemical
- experimental_setup: liposome assay; read-out: DGK zeta LIPGLO IC50
Just so you know, pIC50 here is -log10 of the concentration in molar units; reply with that number alone.

Query: Endpoint output: pIC50 of CC[C@@H]1CN(c2nc(=O)n(C)c3ccc(C#N)nc23)[C@@H](C)CN1C(c1ccc(F)cc1)c1csc(C(F)(F)F)n1 (stereo partly drawn) [Example 296] . Value?
Reply: 6.85

Query: Report pIC50 for CC[C@H]1CN(C(C)c2ccc(C3CC3)nc2)[C@H](CC)CN1c1nc(=O)n(C)c2ccc(C#N)nc12 (stereo partly drawn) [Example 192] please.
Reply: 7.28

From here, focus on the item given below.
Query: So what's the measured pIC50 for this one? C[C@@H]1CN(c2nc(=O)n(C)c3ccc(C#N)nc23)[C@@H](C)CN1C(c1ccc(OC(F)(F)F)cc1)c1cc(C2CC2)on1 (single isomer, unassigned) [Example 165]
Reply: 6.43

---

Readings of pIC50 for the listed compounds
- assayed_system: human DGKα (Homo sapiens (Human))
- Sequence (P23743 whole entry, looked up): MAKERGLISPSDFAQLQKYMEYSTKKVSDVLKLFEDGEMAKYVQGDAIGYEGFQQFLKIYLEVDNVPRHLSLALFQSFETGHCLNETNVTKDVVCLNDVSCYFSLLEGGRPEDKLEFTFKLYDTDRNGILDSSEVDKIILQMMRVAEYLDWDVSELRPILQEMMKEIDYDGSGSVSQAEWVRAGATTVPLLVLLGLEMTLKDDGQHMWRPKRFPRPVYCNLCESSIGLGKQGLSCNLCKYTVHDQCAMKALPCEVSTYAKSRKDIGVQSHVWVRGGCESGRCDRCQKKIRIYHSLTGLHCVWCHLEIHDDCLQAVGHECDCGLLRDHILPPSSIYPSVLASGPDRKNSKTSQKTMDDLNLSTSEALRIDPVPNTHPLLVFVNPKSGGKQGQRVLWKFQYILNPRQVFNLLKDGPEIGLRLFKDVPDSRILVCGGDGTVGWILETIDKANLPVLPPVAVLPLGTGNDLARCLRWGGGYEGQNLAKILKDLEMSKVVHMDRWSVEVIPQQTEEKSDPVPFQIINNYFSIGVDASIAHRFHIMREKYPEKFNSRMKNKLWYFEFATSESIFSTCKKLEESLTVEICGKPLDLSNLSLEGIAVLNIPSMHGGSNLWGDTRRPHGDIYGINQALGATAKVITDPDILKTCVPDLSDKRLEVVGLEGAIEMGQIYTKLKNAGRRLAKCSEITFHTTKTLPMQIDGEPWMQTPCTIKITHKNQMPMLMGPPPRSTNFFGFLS
- assay_remarks: DGKα LIPGLO assay (extruded liposome substrate, ADP-Glo luminescence)
- Format: biochemical
- experimental_setup: liposome assay; read-out: DGK alpha LIPGLO IC50
pIC50 is defined as minus the log10 of a concentration measured in mol/L.

Query: Can you share its pIC50? I mean this compound: CC[C@@H]1CN(c2nc(=O)n(C)c3ccc(C#N)nc23)[C@@H](C)CN1C(C)c1ccc(C2CC2)cc1 (single isomer, unassigned) [Example 64]
Reply: 6.47

New cases:
Query: If you can, please state the reported pIC50 value of CC[C@H]1CN(C(c2ccc(OC(F)(F)F)cc2)c2cc(C3CC3)on2)[C@H](CC)CN1c1nc(=O)n(C)c2ccc(C#N)nc12 (single isomer, unassigned) [Example 42] .
Reply: 7.11

Query: Record request: pIC50 value, item CC[C@@H]1CN(c2nc(=O)n(C)c3ccc(C#N)nc23)[C@@H](C)CN1Cc1ccc(OC(F)(F)F)cc1
Reply: 6.62

Query: Fill in: pIC50 of CC[C@@H]1CN(c2nc(=O)n(C)c3ccc(C#N)nc23)[C@@H](C)CN1C(C)c1ccc(C(F)(F)F)cc1F (single isomer, unassigned) [Example 58] is ___
Reply: 6.57

Query: So what does the record say about pIC50 for CC[C@@H]1CN(c2nc(=O)n(C)c3ccc(C#N)nc23)[C@@H](CC)CN1Cc1ccc(OC(F)(F)F)cc1 ?
Reply: 8.70

Query: Entry CC[C@H]1CN(C(C)c2ccc(C(F)(F)F)nc2)[C@H](CC)CN1c1nc(=O)n(C)c2ccc(C#N)nc12 (single isomer, unassigned) [Example 44] has what pIC50?
Reply: 7.07

---

- assayed_system: human DGKα (Homo sapiens (Human))
- assay_remarks: DGKα LIPGLO assay (extruded liposome substrate, ADP-Glo luminescence)
- Assay type: biochemical
- experimental_setup: liposome assay; read-out: DGK alpha LIPGLO IC50
measured_endpoint: log10(IC50) (log10 of the value in nM)
Scale type: logarithmic (base 10). Underlying IC50 unit: nM.

Query: Item under review: CC[C@H]1CN(C(c2ccc(F)cc2)c2cccc(C(F)(F)F)n2)[C@H](C)CN1c1nc(=O)n(C)c2ccc(C#N)nc12 (stereo partly drawn) [Example 121] . Reported log10(IC50)?
Reply: 3.29

Query: Tell me the measured log10(IC50) of CC(c1ccc(F)cc1)N1C[C@H](C)N(c2nc(=O)n(C)c3ccc(C#N)nc23)C[C@H]1C (single isomer, unassigned) [Example 129] , please.
Reply: 2.91

Query: I would be grateful if you could share the reported log10(IC50) for CC[C@H]1CN(C(C)c2ccc(C(F)(F)F)cc2F)[C@H](CC)CN1c1nc(=O)n(C)c2ccc(C#N)nc12 (single isomer, unassigned) [Example 26] .
Reply: 1.91

---

- assayed_system: human DGKζ (Homo sapiens (Human))
- assay_remarks: DGKζ LIPGLO assay (extruded liposome substrate, ADP-Glo luminescence)
- Type: biochemical
- experimental_setup: liposome assay; read-out: DGK zeta LIPGLO IC50
measured_endpoint: IC50 (µM)
Answer with a number only, understood to be in µM.

Example entries and their recorded answers appear below.
Query: Consider the compound CC[C@H]1CN(C(C)c2ccc(OC(F)(F)F)cc2)[C@H](CC)CN1c1nc(=O)n(C)c2ccc(C#N)nc12 (single isomer, unassigned) [Example 10] and give its measured IC50.
Reply: 0.97

Query: State the recorded IC50 for this entry: CCC(c1ccc(OCC2CC2)cc1)N1C[C@H](CC)N(c2nc(=O)n(C)c3ccc(C#N)nc23)C[C@H]1CC (stereo partly drawn) [Example 217]
Reply: 4.26

Query: Looking for the measured IC50 of CC[C@H]1CN(C(C)c2ccc(C(F)(F)F)cc2)[C@H](C)CN1c1nc(=O)n(C)c2ccc(C#N)nc12 (stereo partly drawn) [Example 116] , can you help?
Reply: 2.11

Query: Please give the measured IC50 for this compound: CC[C@@H]1CN(c2nc(=O)n(C)c3ccc(C#N)nc23)[C@@H](C)CN1Cc1ccc(OC(F)(F)F)cc1 [Example 54]
Reply: 0.35

Query: Which IC50 value is on record for CCC(c1ccc(OC(F)(F)F)cc1F)N1C[C@H](C)N(c2nc(=O)n(C)c3ccc(C#N)nc23)C[C@H]1C (single isomer, unassigned) [Example 153] ?
Reply: 1.98

Next up:
Query: Please give the measured IC50 for this compound: CC[C@H]1CN(C(C)c2ccc(OC(F)(F)F)c(F)c2)[C@H](CC)CN1c1nc(=O)n(C)c2ccc(C#N)nc12 (single isomer, unassigned) [Example 30]
Reply: 0.004

---

- assayed_system: human DGKζ (Homo sapiens (Human))
- assay_remarks: DGKζ LIPGLO assay (extruded liposome substrate, ADP-Glo luminescence)
- Assay type: biochemical
- experimental_setup: liposome assay; read-out: DGK zeta LIPGLO IC50
Labelling field: enter yes if recorded IC50 is less than 100 nM. Enter no if it equals or exceeds that cut-off.

Query: Given CCC(c1ccc(C2CC2)cc1)N1C[C@H](C)N(c2nc(=O)n(C)c3ccc(C#N)nc23)C[C@H]1CC (stereo partly drawn) [Example 301] , is recorded IC50 strictly lower than 100 nM?
Reply: no

Query: Does the reported IC50 of the following compound sit strictly below 100 nM? CC[C@H]1CN(C(c2ccc(F)cc2)c2ccc(C(F)(F)F)cn2)[C@H](CC)CN1c1nc(=O)n(C)c2ccc(C#N)nc12 (single isomer, unassigned) [Example 1]
Reply: yes

More entries:
Query: # check: IC50 < 100 nM for CC(c1cc(F)c(F)c(F)c1)N1C[C@H](C)N(c2nc(=O)n(C)c3ccc(C#N)nc23)C[C@H]1C (single isomer, unassigned) [Example 139]
Reply: no

Query: Quick check: IC50 of CC(c1ccc(C(F)(F)F)cc1F)N1C[C@H](C)N(c2nc(=O)n(C)c3ccc(C#N)nc23)C[C@H]1C (single isomer, unassigned) [Example 151] under 100 nM?
Reply: no

Query: Quick check: does CC[C@H]1CN(C(C)c2ccc(CN3CCC(O)CC3)cc2)[C@H](CC)CN1c1nc(=O)n(C)c2ccc(C#N)nc12 (stereo partly drawn) [Example 285] have IC50 under 100 nM?
Reply: no

Query: Please let me know if CC[C@H]1CN(C(C)c2ccc(CN3CCCCC3)cc2)[C@H](CC)CN1c1nc(=O)n(C)c2ccc(C#N)nc12 (stereo partly drawn) [Example 282] shows IC50 below 100 nM.
Reply: no

Query: Hello, is IC50 of the following compound strictly smaller than 100 nM? CC[C@H]1CN(C(C)c2ccc(OCC3CC3)cc2F)[C@H](CC)CN1c1nc(=O)n(C)c2ccc(C#N)nc12 (single isomer, unassigned) [Example 33]
Reply: no

Query: For CCC(c1ccc(OC)cc1)N1C[C@H](CC)N(c2nc(=O)n(C)c3ccc(C#N)nc23)C[C@H]1CC (stereo partly drawn) [Example 213] , is the recorded IC50 below the cut-off of 100 nM?
Reply: no

Query: Take the compound CC[C@@H]1CN(c2nc(=O)n(C)c3ccc(C#N)nc23)[C@@H](C)CN1C(c1ccc(F)cc1)c1ccon1 (single isomer, unassigned) [Example 73] and say whether its IC50 is less than 100 nM.
Reply: no

Query: Does CC[C@H]1CN(C(C)c2ccc(C(F)(F)F)nc2)[C@H](CC)CN1c1nc(=O)n(C)c2ccc(C#N)nc12 (single isomer, unassigned) [Example 44] have IC50 strictly under 100 nM?
Reply: yes

Query: Dear reviewer, please state whether CC(c1ccc(OC(F)(F)F)cc1F)N1C[C@H](C)N(c2nc(=O)n(C)c3ccc(C#N)nc23)C[C@H]1C (single isomer, unassigned) [Example 142] has IC50 strictly beneath 100 nM.
Reply: no

Query: Does the reported IC50 of CC[C@@H]1CN(c2nc(=O)n(C)c3ccc(C#N)nc23)[C@@H](C)CN1C(c1ccc(F)cc1)c1ccccn1 (single isomer, unassigned) [Example 87] stay below 100 nM?
Reply: no

Query: # strict comparison: is reported IC50 < 100 nM? input = CCC(c1ccc(OC(F)(F)F)cc1F)N1C[C@H](C)N(c2nc(=O)n(C)c3ccc(C#N)nc23)C[C@H]1CC (single isomer, unassigned) [Example 85]
Reply: yes

Query: Bench note: check whether CC[C@H]1CN(C(C)c2cnc(N3CCOCC3)nc2)[C@H](CC)CN1c1nc(=O)n(C)c2ccc(C#N)nc12 (stereo partly drawn) [Example 206] shows IC50 below 100 nM
Reply: no

Query: hey, is IC50 for CC[C@H]1CN(C(C)c2ccc(CN3CCC(F)(F)CC3)cc2)[C@H](CC)CN1c1nc(=O)n(C)c2ccc(C#N)nc12 (stereo partly drawn) [Example 277] lower than 100 nM or not?
Reply: yes

Query: Regarding C[C@@H]1CN(c2nc(=O)n(C)c3ccc(C#N)nc23)[C@@H](C)CN1C(c1ccc(F)cc1)c1ccon1 (single isomer, unassigned) [Example 162] , kindly confirm whether its IC50 is beneath 100 nM.
Reply: no

Query: Check if IC50 falls below 100 nM for CC[C@@H]1CN(c2nc(=O)n(C)c3ccc(C#N)nc23)[C@@H](C)CN1C(C)c1ccc2oc(=O)n(C)c2c1 (stereo partly drawn) [Example 299] .
Reply: no

Query: Is 100 nM strictly greater than the compound's reported IC50? compound: CC(c1ccc(F)cc1)N1C[C@H](C)N(c2nc(=O)n(C)c3ccc(C#N)nc23)C[C@H]1C (single isomer, unassigned) [Example 128]
Reply: no

Query: Threshold test, IC50 < 100 nM: CC[C@@H]1CN(c2nc(=O)n(C)c3ccc(C#N)nc23)[C@@H](C)CN1C(c1ccc(F)cc1)c1ccc(C(F)(F)F)nc1 (single isomer, unassigned) [Example 98]
Reply: yes

Query: Please determine if CCC(c1ccc(OC2CC2)cc1)N1C[C@H](CC)N(c2nc(=O)n(C)c3ccc(C#N)nc23)C[C@H]1CC (stereo partly drawn) [Example 255] is below 100 nM in terms of IC50.
Reply: no
